Measured solubility (mole fraction), listed per entry.
details: in n-hexane, 313.15 K

Field: example entries. Status: answers known.
> print(dat)
                              smiles.string  reported.value
1  Br.CC(C)c1ccc(NC2=NCCC3(CCCCC3)[Se]2)cc1        1.11e-05
2       Br.c1ccc(NC2=NCCC3(CCCCC3)[Se]2)cc1        9.98e-06

# next molecule below
(Q) Tell me the measured solubility (mole fraction) of `Br.Fc1ccc(NC2=NCCC3(CCCCC3)[Se]2)cc1` , please.
(A) 2.89e-06

* * *

Measured solubility (mole fraction), listed per entry.
settings: in n-hexane, 298.15 K
// response body must contain only the number

Field: example entries. Status: answers known.
> print(dat)
                              smiles.string  reported.value
1       Br.c1ccc(NC2=NCCC3(CCCCC3)[Se]2)cc1        5.94e-06
2  Br.CC(C)c1ccc(NC2=NCCC3(CCCCC3)[Se]2)cc1        5.82e-06

(Q) Tell me the measured solubility (mole fraction) of `Br.Fc1ccc(NC2=NCCC3(CCCCC3)[Se]2)cc1` , please.
(A) 1.59e-06
